- Target of assay: KPC-41 (Klebsiella pneumoniae, UniProt Q9F663)
- Sequence (Q9F663 1-268, added parts left off, change not shown, form open): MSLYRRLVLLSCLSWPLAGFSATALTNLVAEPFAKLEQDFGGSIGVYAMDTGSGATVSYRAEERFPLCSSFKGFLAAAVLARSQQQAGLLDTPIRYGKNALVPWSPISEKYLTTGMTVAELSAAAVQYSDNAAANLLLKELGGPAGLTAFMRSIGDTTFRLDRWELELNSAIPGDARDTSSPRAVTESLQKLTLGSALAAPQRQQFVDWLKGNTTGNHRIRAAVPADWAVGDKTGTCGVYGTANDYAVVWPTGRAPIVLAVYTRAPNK
pIC50: −log10 of the molar value.

{"Record smiles": "OB1OCc2cc(Cl)ccc21", "pIC50": 3.43}
